- ASSAYED_SYSTEM: HLA-A02.01 (human)
- MEASUREMENT_DESCRIPTION: competition with radiolabeled reference peptide on prepared MHC class I
- CONDITION_SET: remark: other sources report otherwise
QUANTITY_KIND: Affinity (nM)
# number only, unit nM dropped from output

Reference set, count: 3
LIMQLMPFG ... 3340
IMQLMPFGCL ... 653
VQLIMQLMPF ... 4940

Value lookup for Affinity; key = IMQLMPFGC 1210

Using the record for MQLMPFGCLL , report its Affinity. 16.3

# input binder: STVQLIMQL ; wanted: its Affinity 7260

Look up Affinity: SLLNYLREM 67.7

I am curious: what Affinity value has been reported for YMANGSLLN ? 4000
